tested on: biotinyl-Val-oxazolone; assay: self-aminoacylation, catalytic enhancement (BVO) (fold over background); higher = more active; k-Seq, kA / k0A0; sequences stand for … in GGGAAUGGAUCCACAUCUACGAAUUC…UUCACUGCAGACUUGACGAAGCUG
Variants at the floor of the assay were thinned out.
Class MET: self-aminoacylation at least 0.9. Class NOT MET: self-aminoacylation below 0.9.

biosequence="CCACACUUCAAGCACUCGGCC [Fam1B.1 aminoacylation ribozyme variant]" class=MET
biosequence="CUACACUUCUAGCAAUCGGUC [Fam1B.1 aminoacylation ribozyme variant]" class="NOT MET"
biosequence="AAGUUUGCUAAAAGUCACAAG [Fam3.1 aminoacylation ribozyme variant]" class=MET
biosequence="CCACACUUCAAGCAAGCGUUC [Fam1B.1 aminoacylation ribozyme variant]" class="NOT MET"
